# assayText: Drug repurposing screens with cells derived from glioblastoma tumor samples (AID 1345199); also: % is scaled to controls: 0 for no effect and ±100 for the full control effect; nearly all actives have a fitted effect of over 40% in size
# measurementConditions: GBM patient neurospheres viability, ATP luminescence, 48 h; at 46.1 µM (top of the series); tumour line C
Records with an inconclusive call do not appear.
Please note: activity, negative = cell killing exactly at -10% is class 0. Only values below -10% get class 1.

For `CCNC(=O)[C@@H]1CCCN1C(=O)[C@H](CCCN=C(N)N)NC(=O)[C@H](CC(C)C)NC(=O)[C@@H](CC(C)C)NC(=O)[C@H](Cc1ccc(O)cc1)NC(=O)[C@H](CO)NC(=O)[C@H](Cc1c[nH]c2ccccc12)NC(=O)[C@H](Cc1cnc[nH]1)NC(=O)[C@@H]1CCC(=O)N1` , is the recorded activity, negative = cell killing below the cut-off of -10%?
class 0

For `CCOC(=O)CCC(=O)O[C@H]1[C@H](O[C@@H]2[C@@H](C)[C@H](O[C@H]3C[C@@](C)(OC)[C@@H](O)[C@H](C)O3)[C@@H](C)C(=O)O[C@H](CC)[C@@](C)(O)[C@H](O)[C@@H](C)C(=O)[C@H](C)C[C@@]2(C)O)O[C@H](C)C[C@@H]1N(C)C` , is the recorded activity, negative = cell killing below the cut-off of -10%?
class 0

More entries:
For COc1cc([C@@H]2c3cc4c(cc3C(O[C@@H]3O[C@@H]5CO[C@@H](C)O[C@H]5[C@H](O)[C@H]3O)C3COC(=O)[C@@H]32)OCO4)cc(OC)c1OP(=O)(O)O (stereo not given in full) , is the recorded activity, negative = cell killing below the cut-off of -10%?
class 1

For C[N+]1(C)CCN(CC(O)(c2ccccc2)C2CCCCC2)CC1 (stereo not given) , is the recorded activity, negative = cell killing below the cut-off of -10%?
class 0

For `CCOC(=O)CN[C@@H](C(=O)N1CC[C@H]1C(=O)NCc1ccc(/C(N)=N/O)cc1)C1CCCCC1` , is the recorded activity, negative = cell killing below the cut-off of -10%?
class 1

###

# targetDesc: Cytochrome P450 1A2 (Homo sapiens)
# assayText: p450-cyp1a2 (AID 410)
# measurementConditions: recombinant CYP1A2, luciferin-ME demethylation, luminescence; series mostly up to 57 µM
Inconclusive results are not listed. Active and inactive are the calls of the source. The call rests on the fitted dose curve.
Could you please pick one outcome from this set? Yes for active, No for inactive

Worked cases, answers included:
Assay result, entry `CCCCCCCCCCCCCCC[C@@H](O)[C@@H](N)CO` — outcome?
Yes

Assay result, entry `N[C@H](C(=O)O)c1ccc(C(=O)O)cc1` — outcome?
No

Assay result, entry `CCCCCCc1c(C[C@H](N)C(=O)O)o[nH]c1=O` — outcome?
Yes

Assay result, entry `O=C(Nc1ccc(C(=O)Nc2ccc(C(=O)Nc3ccc(S(=O)(=O)O)c4cc(S(=O)(=O)O)cc(S(=O)(=O)O)c34)cc2)cc1)Nc1ccc(C(=O)Nc2ccc(C(=O)Nc3ccc(S(=O)(=O)O)c4cc(S(=O)(=O)O)cc(S(=O)(=O)O)c34)cc2)cc1` — outcome?
Yes

Assay result, entry `CCC(=O)O[C@H](CC(=O)O)C[N+](C)(C)C` — outcome?
No

More entries:
Assay result, entry `COc1ccc(Cl)cc1N=Nc1ncc[nH]1` — outcome?
Yes

Assay result, entry `COc1cc(N)c(Cl)cc1C(=O)N[C@H]1CCN(CCCOc2ccc(F)cc2)C[C@@H]1OC` — outcome?
Yes

Assay result, entry `CS(=O)(=O)Nc1ccc([N+](=O)[O-])cc1OC1CCCCC1` — outcome?
Yes

Assay result, entry `Cc1ccc(S(=O)(=O)NCc2ccccc2)cc1` — outcome?
Yes

Assay result, entry `NCCOB(c1ccccc1)c1ccccc1` — outcome?
Yes

Assay result, entry COc1ccc2c(c1)CCC1[C@@H]2CCC2(C)[C@@H](NCCCCCCN3C(=O)C=CC3=O)CC[C@@H]12 (stereo partly drawn) — outcome?
No

Assay result, entry `c1ccc2sc(N3CCN(Cc4ccc5c(c4)OCO5)CC3)nc2c1` — outcome?
Yes

Assay result, entry `N[C@@H](Cc1cc(CP(=O)(O)O)cc(-c2ccccc2Cl)c1)C(=O)O` — outcome?
No

Assay result, entry `COc1ccc(CCCO[C@@H](Cn2ccnc2)c2ccc(OC)cc2)cc1` — outcome?
Yes

Assay result, entry `C[C@@H](C(=O)O)c1ccc(-c2ccccc2)c(F)c1` — outcome?
Yes

Assay result, entry `CC(C)[C@@H]1C(=O)N(S(C)(=O)=O)[C@H]2CCN(C(=O)/C=C\CN3CCCCC3)[C@@H]12` — outcome?
No

Assay result, entry `CCCCCCCCCCCC(=O)O[C@H](CC(=O)O)C[N+](C)(C)C` — outcome?
No

Assay result, entry `Cc1nc2ccc(NC(=O)Nc3ccnc4cccnc34)cc2o1` — outcome?
Yes

Assay result, entry `NC(N)=Nc1ccc(Cl)cc1` — outcome?
No

Assay result, entry `Fc1cccc(/C=N\N=C/c2cccc(F)c2)c1` — outcome?
Yes

Assay result, entry `c1ccc2cc(C3=NCCN3)ncc2c1` — outcome?
Yes

###

# Tested on: PA-1
# assayText: Primary qHTS to identify gynecologic anti-cancer compounds using libraries of approved drugs and bioactive compounds (AID 1345084); also: nearly all actives have a fitted effect of over 55% in size; also: potency is read from the fitted curve at half-maximal effect
# measurementConditions: Gynecologic cancer cell panel viability, ATPlite luminescence, 48 h; series mostly up to 57.5 µM
Results filed as inconclusive are left out. Active and inactive are the calls of the source. The call rests on the fitted dose curve; in most records, active means well fitted cell-killing curve with a large enough effect; inconclusive means small, poorly fitted or top-dose-only effect, or effect the other way; inactive means flat fitted curve, though single readings scatter.
measuredParameter: Potency

# count of solved cases: 4
// Input: `Cc1nc(C)c2c(n1)N(Cc1ccc(-c3ccccc3-c3nn[nH]n3)cc1)C(=O)CC2` . Output its Potency only.
inactive

// Input: `CC1(C)CC23[C@@H]4CC(=O)[C@@H]2COC(=O)[C@@H]3CC[C@H]41` . Output its Potency only.
inactive

// Input: CC1(C)SC2C(NC(=O)[C@H](NC(=O)N3CCNC3=O)c3ccccc3)C(=O)N2C1C(=O)O (stereo partly drawn) . Output its Potency only.
inactive

// Input: `N#C[C@@H]1C[C@@H]2C[C@@H]2N1C(=O)[C@@H](N)C12CC3CC(CC(O)(C3)C1)C2` . Output its Potency only.
inactive

# context switch: different compound, same Potency
// Input: CC1(C)CC[C@]2(C(=O)OC3OC(CO)C(O)C(O)C3O)CC[C@]3(C)C(=CCC4[C@@]5(C)CC[C@H](OC6OC(C(=O)O)C(O)C(O)C6O)C(CO)(CO)C5CC[C@]43C)[C@@H]2C1 (stereo partly drawn) . Output its Potency only.
3.16 µM (active)

###

# targetDesc: Cytochrome P450 3A4 (Homo sapiens)
# assayText: qHTS Assay for Activators of Cytochrome P450 3A4 (AID 885); also: potency is read from the fitted curve at half-maximal effect; nearly all actives have a fitted effect of over 65% in size
# measurementConditions: recombinant CYP3A4, Luciferin-PPXE luminescence, 60 min; series mostly up to 57.1 µM
Active and inactive are the calls of the source. Calls come from the whole dose curve; as a rule, active = well fitted activation curve with a large enough effect; inconclusive = small, poorly fitted or top-dose-only effect; inactive = no such curve, though single readings can be large or run the other way.
measuredParameter: Potency

# count of solved cases: 3
// Input: `O=C(O)c1c(Sc2ccccc2)c2cc(Cl)ccc2n1Cc1ccc(Cl)cc1` . Output its Potency only.
7.94 µM (active)

// Input: `CCCN(C/C=C\I)[C@@H]1CCc2cccc(O)c2C1` . Output its Potency only.
25.1 µM (active)

// Input: `Cc1c(C2CCN(CCc3ccccc3)CC2)noc1-c1ccc(Cl)cc1` . Output its Potency only.
15.8 µM (active)

More entries:
// Input: `O[C@@H](c1ccccc1)C1CCN(CCc2ccccc2)CC1` . Output its Potency only.
15.8 µM (active)

###

# assayText: qHTS for H2AX Agonists against the NCATS CANVASS Library (AID 1347378);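 also: phospho-H2AX S139 level in CHO-K1 lysates by TR-FRET emission ratio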; as to activation: 0% is about no effect
# measurementConditions: CHO-K1 H2AX phosphorylation, HTRF TR-FRET, 3 h; series mostly up to 76.9 µM
Records with an inconclusive call do not appear. Activity calls are given as the source filed them. The call rests on the fitted dose curve; in most records, active means well fitted activation curve with a large enough effect; inconclusive means small, poorly fitted or top-dose-only effect; inactive means flat fitted curve, though single readings scatter. Numbered stars: 1 amine (or outer) side, 2 acyl side, 3 side chain; on linkers, the order of the positions; unused ones are H or OH. Bridge positions count the residues as written; N and C are the ends. Square brackets hold non-standard residues; d marks the D form. Peptide text beside a SMILES is read from it. ξ: configuration not given here. Phe(3R-OH) = O=C([C@@H](N[*:1])[C@H](O[*:3])c1ccccc1)[*:2]; NMeTrp(4-OMe) = CN[C@@H](Cc1c[nH]c2cccc(OC)c12)C(=O)O; ξThr(3R)(O-yl) = C[C@@H](O[*:3])C(N[*:1])C(=O)[*:2]; NMeThr(3ξ) = CN[C@H](C(=O)O)C(C)O; NMeL = CN[C@@H](CC(C)C)C(=O)O; NMeV = CN[C@H](C(=O)O)C(C)C; ξIle = CC[C@H](C)C(N)C(=O)O; ξV = CC(C)C(N)C(=O)O
Could you please pick one outcome from this set? active, inactive

Worked cases, answers included:
Assay result, entry CC[C@H](C)C(NC(=O)[C@@H](NC)C(C)C)C(=O)NC1C(=O)N(C)[C@@H](C(C)O)C(=O)N[C@@H](C(C)C)C(=O)N(C)[C@@H](CC(C)C)C(=O)NC(C(C)C)C(=O)N(C)[C@@H](C(C)C)C(=O)N(C)[C@@H](Cc2c[nH]c3cccc(OC)c23)C(=O)N[C@@H](C(C)C)C(=O)N[C@@H]([C@H](O)c2ccccc2)C(=O)N[C@@H](C(C)C)C(=O)O[C@@H]1C (stereo partly drawn) (H-[NMeV][ξIle][ξThr(3R)(O-yl)][NMeThr(3ξ)]V[NMeL][ξV][NMeV][NMeTrp(4-OMe)]V[Phe(3R-OH)]V; ester 3-C) — outcome?
inactive

Assay result, entry CO[C@@H]1[C@H](O)[C@@H](C)O[C@@H](OC[C@@H]2C(C)OC(=O)/C=C/[C@H](C)C(O[C@@H]3O[C@H](C)CC4(OC(=O)O[C@@H]4C)C3O)[C@@H](C)CC(C)C(=O)CC[C@H]3OC23)[C@@H]1OC (some centres undefined) — outcome?
inactive

Assay result, entry `COc1ccc2cc(NC(=O)C3=NO[C@H]4[C@H](O)C=C[C@@H](Cl)[C@@]4(O)C3)c(=O)oc2c1OC` — outcome?
inactive

We now examine a further compound.
Assay result, entry `C=C1C(=O)O[C@H]2C[C@H](C)[C@@H]3CC(=O)C(C)=C3[C@H](O)[C@H]12` — outcome?
active
